Molecular target: UniProtKB P23385
Sequence (P23385 whole entry): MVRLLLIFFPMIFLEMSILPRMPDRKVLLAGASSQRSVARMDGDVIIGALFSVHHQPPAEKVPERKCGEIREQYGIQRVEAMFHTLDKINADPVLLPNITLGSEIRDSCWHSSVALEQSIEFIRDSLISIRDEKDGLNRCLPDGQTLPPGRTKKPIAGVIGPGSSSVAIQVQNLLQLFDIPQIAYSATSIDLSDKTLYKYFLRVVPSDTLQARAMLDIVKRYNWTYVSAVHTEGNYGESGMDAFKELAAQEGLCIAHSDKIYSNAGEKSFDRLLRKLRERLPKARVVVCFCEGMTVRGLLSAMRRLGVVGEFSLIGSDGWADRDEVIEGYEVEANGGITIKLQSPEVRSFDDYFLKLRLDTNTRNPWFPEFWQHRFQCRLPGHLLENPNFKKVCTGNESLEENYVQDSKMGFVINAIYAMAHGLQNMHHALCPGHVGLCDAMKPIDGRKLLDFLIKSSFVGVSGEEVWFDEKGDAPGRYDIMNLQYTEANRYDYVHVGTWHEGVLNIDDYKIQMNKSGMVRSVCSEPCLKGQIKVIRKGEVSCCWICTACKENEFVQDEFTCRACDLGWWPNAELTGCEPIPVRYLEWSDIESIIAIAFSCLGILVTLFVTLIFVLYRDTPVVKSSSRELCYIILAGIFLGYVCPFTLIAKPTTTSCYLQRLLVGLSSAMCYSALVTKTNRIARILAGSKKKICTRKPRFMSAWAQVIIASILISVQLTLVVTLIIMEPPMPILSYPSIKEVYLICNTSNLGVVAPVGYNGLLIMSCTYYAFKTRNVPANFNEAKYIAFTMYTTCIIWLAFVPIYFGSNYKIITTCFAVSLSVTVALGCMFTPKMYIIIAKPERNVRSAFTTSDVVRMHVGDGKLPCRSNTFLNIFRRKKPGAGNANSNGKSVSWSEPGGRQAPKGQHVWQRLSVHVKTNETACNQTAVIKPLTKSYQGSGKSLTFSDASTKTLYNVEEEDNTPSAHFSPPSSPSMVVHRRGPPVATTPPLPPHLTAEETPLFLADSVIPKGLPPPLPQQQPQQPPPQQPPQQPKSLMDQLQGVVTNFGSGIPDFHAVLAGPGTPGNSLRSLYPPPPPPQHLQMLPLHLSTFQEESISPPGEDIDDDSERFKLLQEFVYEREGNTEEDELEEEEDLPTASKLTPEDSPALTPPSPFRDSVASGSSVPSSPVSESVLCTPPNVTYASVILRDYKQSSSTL
Assay: Agonist activity at rat mGlu1 receptor expressed in CHO cells assessed as potentiation of glutamate-activated K+ currents by electrophysiology
pEC50: −log10 of the molar value.
endpoint: pEC50

[
  {
    "compound": "O=C(Nc1nc(C(F)(F)F)co1)C1c2ccccc2Oc2cc(F)ccc21 (racemic)",
    "system name": "UniProtKB P23385",
    "endpoint": "pEC50",
    "result value": 6.59
  },
  {
    "compound": "O=C(Nc1nc(C(F)(F)F)co1)C1c2ccccc2Oc2ccccc21",
    "system name": "UniProtKB P23385",
    "endpoint": "pEC50",
    "result value": 6.69
  },
  {
    "compound": "O=C(Nc1ncc(C(F)(F)F)o1)C1c2ccccc2Oc2ccccc21",
    "system name": "UniProtKB P23385",
    "endpoint": "pEC50",
    "result value": 6.40
  },
  {
    "compound": "Cc1nc(NC(=O)C2c3ccccc3Oc3ccccc32)no1",
    "system name": "UniProtKB P23385",
    "endpoint": "pEC50",
    "result value": 6.66
  },
  {
    "compound": "O=C(Nc1ncc(C(F)(F)F)o1)C1c2cccc(F)c2Oc2c(F)cccc21",
    "system name": "UniProtKB P23385",
    "endpoint": "pEC50",
    "result value": 6.79
  }
]

Measured values drawn from ChEMBL document CHEMBL1153313 for this set.
